A set of compounds tested on UniProt:Q08499, with measured EC50:
metric-name: EC50

>>> measured_result("COc1ncc(Cc2ccc(NC(N)=O)cc2)cc1-c1cccc(Cl)c1 [Example 26]")
"100 to 1000 nM"
>>> measured_result("COc1ncc(Cc2cnc(NC(C)=O)nc2)cc1-c1cccc(Cl)c1 [Example 44]")
"100 to 1000 nM"
>>> measured_result("COc1ncc(Cn2cncn2)cc1-c1ccnc(C)c1 [Example 7]")
"100 to 1000 nM"
>>> measured_result("COc1ncc(Cn2cc(C(=O)O)cn2)cc1-c1cccc(Cl)c1 [Example 270]")
"> 10000 nM"
>>> measured_result("CCOc1ncc(Cn2ncnc2C(F)(F)F)nc1-c1cccc(OC(F)F)c1 [Example 188]")
"100 to 1000 nM"
>>> measured_result("FC(F)Oc1ncc(Cn2cncn2)cc1-c1cccc(OC(F)(F)F)c1 [Example 176]")
"100 to 1000 nM"
>>> measured_result("COc1ncc(Cn2cncn2)cc1-c1ccncc1 [Example 171]")
"100 to 1000 nM"
>>> measured_result("CC(C)Oc1cccc(-c2cc(Cc3cnc(N)nc3)cnc2OC(F)F)c1 [Example 42]")
"1000 to 10000 nM"
>>> measured_result("COc1ncc(Cn2cncn2)cc1-c1cc(F)cc(F)c1 [Example 139]")
"100 to 1000 nM"
>>> measured_result("COc1ncc(Cn2cncn2)cc1-c1cccc(Cl)c1 [Example 134]")
"< 100 nM"
>>> measured_result("FC(F)Oc1ncc(Cc2cncs2)cc1-c1cccc(Cl)c1 [Example 68]")
"< 100 nM"
>>> measured_result("CCOc1ncc(Cn2cnc(C(F)(F)F)n2)cc1-c1cccc(Cl)c1 [Example 152]")
"100 to 1000 nM"
>>> measured_result("COc1ncc(Cn2cc([N+](=O)[O-])cn2)cc1-c1cccc(Cl)c1 [Example 180]")
"100 to 1000 nM"
>>> measured_result("COc1ncc(Cc2cncs2)cc1-c1cccc(Cl)c1 [Example 65]")
"< 100 nM"
>>> measured_result("CCOc1cccc(-c2cc(Cn3cc(CO)nn3)cnc2OC(F)F)c1 [Example 264]")
"< 100 nM"
>>> measured_result("COc1ncc(Cc2cnc(NC3CC3)nc2)cc1-c1cccc(Cl)c1 [Example 82]")
"< 100 nM"
>>> measured_result("CCOc1ncc(Cn2cc(Cl)c(CO)n2)cc1-c1cccc(Cl)c1 [Example 277]")
"100 to 1000 nM"
>>> measured_result("COc1ncc(Cn2cnc(C(F)(F)F)c2)cc1-c1cccc(Cl)c1 [Example 149]")
"1000 to 10000 nM"
>>> measured_result("COc1ncc(Cn2cnc(C(F)(F)F)n2)cc1-c1cccc(Cl)c1 [Example 146]")
"100 to 1000 nM"
>>> measured_result("COc1ncc(Cn2cncn2)cc1-c1cc(Cl)cs1 [Example 142]")
"100 to 1000 nM"
>>> measured_result("COc1ncc(C(O)c2ccc(F)cc2)cc1-c1cccc(Cl)c1 (centres unmarked) [Example 14]")
"100 to 1000 nM"
>>> measured_result("COc1ncc(Cc2cnc(C(=O)O)nc2)cc1-c1cccc(Cl)c1 [Example 23]")
"1000 to 10000 nM"
>>> measured_result("Cc1cccc(-c2cc(Cn3cncn3)cnc2OC(F)F)c1 [Example 12]")
"100 to 1000 nM"
>>> measured_result("COc1ncc(Cn2cnc(N)n2)cc1-c1cccc(OC2CC2)c1 [Example 225]")
"1000 to 10000 nM"
>>> measured_result("COc1ncc(Cc2cnc(N)nc2)cc1-c1ccnc(OC(F)F)c1 [Example 47]")
"< 100 nM"
>>> measured_result("Nc1ncn(Cc2cnc(OC(F)F)c(-c3cccc(Cl)c3)c2)n1 [Example 219]")
"< 100 nM"
>>> measured_result("COc1ncc(Cn2ncnc2CO)nc1-c1cccc(Cl)c1 [Example 210]")
"1000 to 10000 nM"
>>> measured_result("COc1ncc(Cc2cnn(C)c2)cc1-c1cccc(Cl)c1 [Example 79]")
"< 100 nM"
>>> measured_result("Nc1ccc(Cc2cnc(OC(F)F)c(-c3cccc(Cl)c3)c2)nn1 [Example 111]")
"100 to 1000 nM"
>>> measured_result("CCOc1ncc(Cn2ncnc2C(=O)OC)nc1-c1cccc(OC(F)F)c1 [Example 192]")
"1000 to 10000 nM"
>>> measured_result("COc1ncc(Cc2ccncc2)cc1-c1cccc(Cl)c1 [Example 53]")
"100 to 1000 nM"
>>> measured_result("COc1ncnn1Cc1cnc(OC(F)F)c(-c2cccc(Cl)c2)c1 [Example 215]")
"1000 to 10000 nM"
>>> measured_result("COc1ncc(Cn2cncn2)cc1-c1cccc(C)c1 [Example 5]")
"100 to 1000 nM"
>>> measured_result("CC(c1cnc(OC(F)F)c(-c2cccc(Cl)c2)c1)n1cncn1 (centres unmarked) [Example 150]")
"100 to 1000 nM"
>>> measured_result("CCOc1ncc(Cn2ncnc2CO)nc1-c1cccc(OC(F)F)c1 [Example 209]")
"1000 to 10000 nM"
